Every entry's value here was drawn from patent US9855268B2.

Property: IC50; scope: individual compounds
Biological target: UniProt:P49840
Sequence (P49840 whole entry): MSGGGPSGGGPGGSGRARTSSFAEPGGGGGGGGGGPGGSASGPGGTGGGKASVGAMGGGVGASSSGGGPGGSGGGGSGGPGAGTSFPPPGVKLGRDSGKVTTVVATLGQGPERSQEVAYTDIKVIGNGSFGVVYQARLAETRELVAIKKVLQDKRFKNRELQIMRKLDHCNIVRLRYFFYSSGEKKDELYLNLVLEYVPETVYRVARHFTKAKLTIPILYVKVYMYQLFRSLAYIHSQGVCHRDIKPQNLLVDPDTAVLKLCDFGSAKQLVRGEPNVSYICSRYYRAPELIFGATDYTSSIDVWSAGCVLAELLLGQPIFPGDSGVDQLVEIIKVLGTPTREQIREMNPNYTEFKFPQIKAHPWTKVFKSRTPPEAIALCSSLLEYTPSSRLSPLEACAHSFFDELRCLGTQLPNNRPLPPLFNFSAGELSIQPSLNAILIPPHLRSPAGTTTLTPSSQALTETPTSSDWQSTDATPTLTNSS
Experiment: GSK3α radiometric kinase assay (33P-ATP, phospho GS2 peptide)
Type: biochemical
Details: read-out: IC50 GSK3α (enzyme assay)

Example cases with answers are listed next.
| Compound | IC50 |
| --- | --- |
| Cn1cc(-c2ccc(-n3nnc4cnc(N[C@@H]5CC[C@H](N)C5)nc43)cc2)cn1 | < 1000 nM |
| CCOCCn1cc(-c2ccc(-n3nnc4cnc(N[C@@H]5CC[C@@H](N)C5)nc43)cc2)cn1 | < 1000 nM |
| N[C@H]1CC[C@H](Nc2ncc3nnn(-c4ccc(-c5cnn(CCn6cccn6)c5)cc4)c3n2)CC1 | < 1000 nM |
| COc1ccc(-n2nnc3cnc(N[C@@H]4CC[C@H](C(N)=O)C4)nc32)cc1 | < 1000 nM |
| O[C@@H]1CC[C@@H](Nc2ncc3nnn(-c4ccc5nsnc5c4)c3n2)C1 (relative stereo) | < 1000 nM |
| CCOc1ccc(-n2nnc3cnc(N[C@@H]4CC[C@@H](C(=O)NCCO)C4)nc32)cc1 | < 1000 nM |

Qu. Answer with IC50 of Cc1ccc2cc(-n3nnc4cnc(N[C@@H]5CC[C@@H](N)C5)nc43)ccc2n1 measured for UniProt:P49840.
Ans. < 1000 nM

Qu. Answer with IC50 of OCCn1cc(-c2ccc(-n3nnc4cnc(N[C@@H]5CC[C@@H](O)C5)nc43)cc2)cn1 measured for UniProt:P49840.
Ans. < 1000 nM

----------
Target: GCN2 (Homo sapiens)
Sequence (Q9P2K8 whole entry): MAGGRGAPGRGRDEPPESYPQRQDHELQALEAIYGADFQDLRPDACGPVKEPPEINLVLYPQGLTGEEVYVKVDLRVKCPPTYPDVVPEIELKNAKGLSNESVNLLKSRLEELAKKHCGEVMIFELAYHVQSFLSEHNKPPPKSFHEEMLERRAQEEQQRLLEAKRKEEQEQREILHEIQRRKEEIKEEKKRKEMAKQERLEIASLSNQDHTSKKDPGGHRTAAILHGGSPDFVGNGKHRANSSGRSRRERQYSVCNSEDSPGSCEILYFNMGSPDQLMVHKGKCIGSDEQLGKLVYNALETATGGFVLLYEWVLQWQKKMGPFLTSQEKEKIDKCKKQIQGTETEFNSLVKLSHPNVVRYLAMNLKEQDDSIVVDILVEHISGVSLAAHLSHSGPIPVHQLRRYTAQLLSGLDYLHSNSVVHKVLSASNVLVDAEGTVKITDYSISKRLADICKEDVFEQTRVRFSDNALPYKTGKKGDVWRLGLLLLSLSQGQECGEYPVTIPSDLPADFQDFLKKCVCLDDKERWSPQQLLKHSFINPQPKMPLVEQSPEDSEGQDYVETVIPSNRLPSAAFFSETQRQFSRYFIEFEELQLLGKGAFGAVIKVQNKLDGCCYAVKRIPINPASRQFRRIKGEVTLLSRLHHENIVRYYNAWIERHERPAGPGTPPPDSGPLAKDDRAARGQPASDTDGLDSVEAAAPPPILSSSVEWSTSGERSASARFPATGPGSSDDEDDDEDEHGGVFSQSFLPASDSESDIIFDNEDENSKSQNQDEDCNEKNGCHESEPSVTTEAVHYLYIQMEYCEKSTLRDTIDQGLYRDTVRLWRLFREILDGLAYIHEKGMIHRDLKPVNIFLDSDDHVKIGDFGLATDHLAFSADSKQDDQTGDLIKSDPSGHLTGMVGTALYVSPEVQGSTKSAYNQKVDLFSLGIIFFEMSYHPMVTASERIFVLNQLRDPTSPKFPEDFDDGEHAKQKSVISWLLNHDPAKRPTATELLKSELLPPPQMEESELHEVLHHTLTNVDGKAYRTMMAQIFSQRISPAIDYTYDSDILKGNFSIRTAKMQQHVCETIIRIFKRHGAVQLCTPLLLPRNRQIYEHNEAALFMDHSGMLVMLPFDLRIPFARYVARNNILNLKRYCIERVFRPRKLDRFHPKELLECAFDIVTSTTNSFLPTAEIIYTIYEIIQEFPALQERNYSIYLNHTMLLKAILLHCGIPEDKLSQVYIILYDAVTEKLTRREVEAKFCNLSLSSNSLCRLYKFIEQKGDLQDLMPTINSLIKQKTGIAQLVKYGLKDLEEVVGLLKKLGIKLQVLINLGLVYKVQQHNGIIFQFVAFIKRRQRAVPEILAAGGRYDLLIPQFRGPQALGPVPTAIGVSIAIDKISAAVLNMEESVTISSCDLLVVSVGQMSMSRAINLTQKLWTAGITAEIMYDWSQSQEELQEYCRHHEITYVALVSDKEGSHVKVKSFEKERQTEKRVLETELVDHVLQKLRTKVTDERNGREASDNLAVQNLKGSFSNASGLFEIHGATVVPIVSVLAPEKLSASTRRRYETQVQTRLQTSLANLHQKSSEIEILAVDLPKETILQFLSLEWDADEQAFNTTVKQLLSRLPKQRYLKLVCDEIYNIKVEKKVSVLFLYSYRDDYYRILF
Assay: Cellular assay of GCN2 activity (phospho-eIF2alpha immunocytochemistry after tryptophanol)
Assay type: cell-based
Set-up: endogenous in cells; host or cells: U2OS
Conditions: Human U2OS cells, 2 h compound, 600 μM tryptophanol 30 min
pIC50: −log10 of the molar value.
Reported endpoint: pIC50

Qu. Output measured pIC50 for this item: CCOCCn1cc(-c2ccc(-n3nnc4cnc(N[C@@H]5CC[C@@H](C(N)=O)C5)nc43)cc2)cn1 [A211]
Ans. 5.00 to 5.30

Qu. Output measured pIC50 for this item: NC(=O)[C@@H]1CC[C@@H](Nc2ncc3nnn(-c4ccc(N5CCOCC5)c(F)c4)c3n2)C1 [A158]
Ans. 5.00 to 5.30

Qu. Output measured pIC50 for this item: CCOCCOc1ccc2cc(-n3nnc4cnc(N[C@@H]5CC[C@@H](C(N)=O)C5)nc43)ccc2n1 [A182]
Ans. 5.30 to 6.00

Qu. Output measured pIC50 for this item: N[C@H]1CC[C@H](Nc2ncc3nnn(-c4ccc(OC5CCOCC5)cc4)c3n2)CC1 [A127]
Ans. 5.30 to 6.00

Qu. Output measured pIC50 for this item: CC(C)Oc1ccc(-n2nnc3cnc(N[C@@H]4CC[C@@H](C(N)=O)C4)nc32)cc1 [A164]
Ans. 5.00 to 5.30

Qu. Output measured pIC50 for this item: COCCn1cc(-c2ccc(-n3nnc4cnc(N[C@@H]5CC[C@@H](C(N)=O)C5)nc43)cc2C)cn1 [A230]
Ans. 5.30 to 6.00

Qu. Output measured pIC50 for this item: NC(=O)[C@H]1CC[C@@H](Nc2ncc3nnn(-c4ccc(-c5cnn(CCN6CCCC6)c5)cc4)c3n2)C1 [A216]
Ans. 5.30 to 6.00

Qu. Output measured pIC50 for this item: O[C@@H]1CC[C@@H](Nc2ncc3nnn(-c4ccc5ncccc5c4)c3n2)C1 [A204]
Ans. 5.30 to 6.00
